Values compiled from paper PMC3631442.

target: Bcl-2 (UniProt P10415 1-239); assay: fluorescence polarisation
Sequence (P10415 whole entry): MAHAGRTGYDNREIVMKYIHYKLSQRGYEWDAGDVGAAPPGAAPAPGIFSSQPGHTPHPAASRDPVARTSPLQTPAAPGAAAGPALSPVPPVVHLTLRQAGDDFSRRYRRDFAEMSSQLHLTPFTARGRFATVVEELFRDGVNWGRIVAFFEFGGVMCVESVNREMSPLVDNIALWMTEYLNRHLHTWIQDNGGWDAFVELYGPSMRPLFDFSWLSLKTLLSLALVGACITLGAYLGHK
ENDPOINT: Ki (nM)
State the answer as a number, implicitly in nM.

Consider the following illustrative entries.
BINDER | Ki, nM
Ac-RPEIWIAQGLRRIGDTWNAYYAR-NH2 [FW1 (unlabeled, 23 residues)] | 31
Ac-RPEIWLAQYLRRLGDQINAYYAR-NH2 [FD1] | 7
Ac-RPEIWIAQELRRAGDVLNAYYAR-NH2 [FA1 (unlabeled, 23 residues)] | 313

Continue with the next binder.
Ask: State the recorded Ki for this entry: H-RPEIWMAQVLRRFGDLLNAYYAR-OH [FD2]
Reply: 223
